- measured.on: cGAS (Homo sapiens, UniProt Q8N884)
- Sequence (Q8N884 whole entry): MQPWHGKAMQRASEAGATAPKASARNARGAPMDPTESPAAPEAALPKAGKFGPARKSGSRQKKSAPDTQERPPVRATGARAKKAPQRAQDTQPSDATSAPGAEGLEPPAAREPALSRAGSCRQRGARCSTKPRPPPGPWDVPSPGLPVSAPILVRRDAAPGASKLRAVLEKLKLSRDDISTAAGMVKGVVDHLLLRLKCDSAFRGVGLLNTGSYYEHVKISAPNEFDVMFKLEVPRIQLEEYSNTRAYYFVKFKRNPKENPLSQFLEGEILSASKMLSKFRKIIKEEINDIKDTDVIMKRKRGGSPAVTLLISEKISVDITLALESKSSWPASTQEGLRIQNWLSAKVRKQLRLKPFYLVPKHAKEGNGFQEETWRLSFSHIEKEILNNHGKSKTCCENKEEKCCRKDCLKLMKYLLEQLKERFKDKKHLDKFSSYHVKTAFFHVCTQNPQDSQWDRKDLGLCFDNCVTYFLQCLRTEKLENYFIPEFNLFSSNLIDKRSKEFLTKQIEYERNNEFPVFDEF
- procedure.text: In vitro inhibition assay of cGAS activity (cGAMP production, RapidFire mass spectrometry)
- Type: biochemical
- Parameters: Insert cDNA encoding full-length of human cGAS; His6; made in house; host or cells: E. coli BL21(DE3)
- test.parameters: 10 nM recombinant human cGAS, 60 nM 75-bp dsDNA, 50 μM ATP, 50 μM GTP, 3 hrs
parameter: IC50

Input: Returns the measured IC50 for the input compound. Input: C[C@H](O)C(=O)Nc1cc(Cl)c(Cl)c2[nH]c3c(c12)[C@@H](C)C(=O)NCC3(C)C (single isomer, unassigned) [Example 181]
Output: > 39800 nM

Input: Same question for C[C@H]1C(=O)NCCc2[nH]c3c(Cl)c(Cl)cc(NCCCO)c3c21 (single isomer, unassigned) [Example 53] please.
Output: 17.3 nM

Input: Same question for C[C@@H]1C(=O)NCCc2c1c1c(NC(=O)CO)cc(Cl)c(Cl)c1n2CC(F)(F)F (single isomer, unassigned) [Example 187] please.
Output: > 39800 nM

Input: Same question for CC1C(=O)NCCc2[nH]c3c(Cl)c(Cl)cc(OCC(F)(F)CO)c3c21 (stereo not drawn) please.
Output: 23.3 nM

Input: Same question for C[C@@H]1C(=O)NCCc2[nH]c3c(Cl)c(Cl)cc(N[C@H]4CCOC4)c3c21 (single isomer, unassigned) [Example 63] please.
Output: 1670 nM

Input: Same question for C[C@H]1C(=O)NCC(C)(C)c2[nH]c3c(Cl)c(Cl)cc(NC(=O)CO)c3c21 (single isomer, unassigned) [Example 132] please.
Output: ≥ 39800 nM

----------
- measured.on: UniProt:Q8N884
- procedure.text: Cellular assay to measure cGAS activity (IFNb AlphaLISA in THP1 cells stimulated by RDG-Adenovirus-GFP)
- Assay type: cell-based
- Set-up: host or cells: THP1 cells differentiated with PMA and stimulated with RDG-Adenovirus-GFP
- test.parameters: PMA-differentiated THP1 cells, RDG-Adenovirus-GFP at 1000 MOI; inhibition of IFNb production as marker for cGAS activity
- Protocol: Cellular assay to measure cGAS activity: Use THP1 cell line from ATCC to determine inhibition of cGAS activity by test compounds in human cells. Plate cells on 96-well plates at 0.2×10^6/well and differentiate with phorbol myristate acetate (PMA) at 37° C./5% CO2. […] Measure quantification of IFNb with an IFNb AlphaLISA Detection kit (Perkin Elmer AL3133F) by mixing the acceptor beads with the cell supernatant followed by the addition of the biotinylated antibody and donor beads. […]
parameter: IC50

Input: Returns the measured IC50 for the input molecule. Input: Cn1ncc(-c2cc(Cl)c(Cl)c3[nH]c4c(c23)CC(=O)NC[C@H]4CC(C)(F)F)n1 (single isomer, unassigned) [Example 137]
Output: > 10 µM

Input: Same question for Cc1noc(-c2cc(Cl)c(Cl)c3[nH]c4c(c23)CC(=O)NCC4)n1 [Example 25] please.
Output: > 10 µM

Input: Same question for C[C@@H]1C(=O)NCCc2[nH]c3c(Cl)c(Cl)cc(OC[C@@H](C)O)c3c21 (single isomer, unassigned) [Example 83] please.
Output: > 10 µM

----------
Give IC50 for every item shown.
- measured.on: cGAS (Homo sapiens, UniProt Q8N884)
- procedure.text: Cellular assay to measure cGAS activity (IFNb AlphaLISA in THP1 cells stimulated by RDG-Adenovirus-GFP)
- Format: cell-based
- Parameters: host or cells: THP1 cells differentiated with PMA and stimulated with RDG-Adenovirus-GFP
- test.parameters: PMA-differentiated THP1 cells, RDG-Adenovirus-GFP at 1000 MOI; inhibition of IFNb production as marker for cGAS activity

Input: Returns the measured IC50 for the input compound. Input: CNC(=O)CC1CNC(=O)Cc2c1[nH]c1c(Cl)c(Cl)cc(-c3cnn(C)n3)c21 (stereo not drawn)
Output: > 10 µM

Input: Same question for C[C@H]1C(=O)NCCc2[nH]c3c(Cl)c(Cl)cc(NCC(F)(F)CO)c3c21 (single isomer, unassigned) [Example 69] please.
Output: > 10 µM

Input: Same question for C[C@@H](O)CNc1cc(Cl)c(Cl)c2c1c1c(n2C)CCNC(=O)[C@@H]1C (single isomer, unassigned) [Example 99] please.
Output: > 10 µM

----------
Give pIC50 for every item shown.
- measured.on: cGAS (Homo sapiens, UniProt Q8N884)
- procedure.text: Cellular assay to measure cGAS activity (IFNb AlphaLISA in THP1 cells stimulated by RDG-Adenovirus-GFP)
- Format: cell-based
- Set-up: host or cells: THP1 cells differentiated with PMA and stimulated with RDG-Adenovirus-GFP
- test.parameters: PMA-differentiated THP1 cells, RDG-Adenovirus-GFP at 1000 MOI; inhibition of IFNb production as marker for cGAS activity
Please report pIC50 as the negative decimal logarithm of the molar concentration, giving only the number.

Input: Returns the measured pIC50 for the input molecule. Input: Cn1c2c(c3c(OCC#N)cc(Cl)c(Cl)c31)CC(=O)NC[C@H]2CC(C)(C)O (single isomer, unassigned) [Example 110]
Output: 5.51

Input: Same question for CC1C(=O)NCCc2[nH]c3c(Cl)c(Cl)cc(OCC(F)(F)CO)c3c21 (stereo not drawn) please.
Output: 6.18

Input: Same question for C[C@@H]1C(=O)NCCc2[nH]c3c(Cl)c(Cl)cc(N[C@H]4CCOC4)c3c21 (single isomer, unassigned) [Example 62] please.
Output: 5.72

Input: Same question for C[C@@H]1CNC(=O)Cc2c1[nH]c1c(Cl)c(Cl)cc(OCC#N)c21 (single isomer, unassigned) [Example 149] please.
Output: 5.51

----------
- measured.on: UniProt Q8N884
- procedure.text: In vitro inhibition assay of cGAS activity (cGAMP production, RapidFire mass spectrometry)
- Assay type: biochemical
- Design: Insert cDNA encoding full-length of human cGAS; His6; made in house; host or cells: E. coli BL21(DE3)
- test.parameters: 10 nM recombinant human cGAS, 60 nM 75-bp dsDNA, 50 μM ATP, 50 μM GTP, 3 hrs
Give pIC50 for every item shown.
Please report pIC50 as the negative decimal logarithm of the molar concentration, giving only the number.

Input: Returns the measured pIC50 for the input molecule. Input: Cn1c2c(c3c(OCC#N)cc(Cl)c(Cl)c31)CC(=O)NCC2 [Example 21]
Output: 6.85

Input: Same question for CC1C(=O)NCCc2[nH]c3c(Cl)c(Cl)cc(-c4cnn(C)n4)c3c21 (stereo not drawn) [Example 9] please.
Output: 7.06

Input: Same question for O=C1Cc2c([nH]c3c(Cl)c(Cl)cc(-c4cn[nH]c4)c23)CCN1 [Example 19] please.
Output: 7.03
